Answer each item with its documented inhibition.
- assay_summary: blockers of RIG-like receptor reporter activation – cell-based, Sendai virus stimulus, luciferase, 10K MLSCN set, TLR/RLR signaling modifier project, primary screen (AID 602276);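 also: firefly luciferase from ISG56 promoter only with Renilla not read in this screen; 0% = Sendai virus plus DMSO and 100% = medium plus DMSO without virus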
- test_settings: HEK293 RL24 IRF3 luciferase reporter, at 10 µM, active compounds read high
Use % as the unit, but write only the number.

Lookup: Given the entry `Cc1cc(C)c(S(=O)(=O)N(C)CC(N)=O)c(C)c1` , report its measured inhibition.
Found: -4.02

Lookup: I would be grateful if you could share the reported inhibition for `O=C(NCc1ccccc1)C1CCN(S(=O)(=O)c2cccc3cccnc23)CC1` .
Found: -3.36

Lookup: Find the recorded inhibition belonging to `Cc1n[nH]c(C)c1N1C(=O)c2cccc3cc(Br)cc(c23)C1=O` and report it.
Found: 1.78

Lookup: Reported inhibition for COc1nc(OC)nc(N2CCC(NC(=O)C(Cc3ccc(C(C)C)cc3)NC(C)=O)CC2)n1 (stereo not drawn) : what is it?
Found: 12.2

Lookup: Field request: inhibition | item: COCCn1nnnc1C(c1ccc(OC)cc1)N1CCN(c2ccccc2F)CC1 (stereo not drawn)
Found: 14.5

Lookup: Item under review: `O=C1CCC(=O)N1OCCCOc1ccc(Br)cc1Cl` . Reported inhibition?
Found: 16.1

Lookup: // inhibition lookup, key: `O=C(NCCN1CCCCCC1)c1ccc(N2CCCC2=O)cc1`
Found: 16.9

Lookup: Would you mind telling me what inhibition value was observed for `COc1ccccc1C(=O)Nc1nc2ccc(S(C)(=O)=O)cc2s1` ?
Found: -2.51

Lookup: Suppose we examine the compound `C=Cn1c(C(=O)O)cc(CC)c1-c1ccccc1` ; what inhibition value has been reported?
Found: 10.9

Lookup: Value lookup for inhibition; key = Cc1cc2c(c(=O)o1)C(C13C=CC(CC1)C3)C(C#N)=C(N)O2 (stereo not drawn)
Found: 5.92

Lookup: Give the measured inhibition of `Cc1ccc(C)c(-c2nc3cc(N)ccc3o2)c1` .
Found: 4.93

Lookup: GET /values?readout=inhibition&item= `COc1cccc(OCCn2ccnc2)c1`
Found: -8.26

Lookup: I am curious: what inhibition value has been reported for `COCCn1c(CN(Cc2ccccc2)Cc2ccccc2)nc2c1c(=O)n(C)c(=O)n2C` ?
Found: 18.4

Lookup: State the recorded inhibition for this entry: `O=C(Nc1ccc(N2CCOCC2)cc1)Nc1ccc2nc(-c3ccco3)c(-c3ccco3)nc2c1`
Found: 38.7

Lookup: Which value of inhibition has been reported for `O=C(OCC(=O)c1cccs1)C1=COCCO1` in the records?
Found: -24.9

Lookup: Name the recorded inhibition for `O=C(OCC#CCSc1nnc(-c2ccncc2)o1)c1cccs1` .
Found: 1.96

Lookup: # get_value(readout='inhibition', item= `CN1CCN(C(=O)C2(NC(=O)Nc3cccc(F)c3)CCCCC2)CC1` )
Found: 3.99

Lookup: Using the record for `Cc1cc(C)c2nc(C(F)(F)F)nc(NCCCN3CCCC3=O)c2c1` , report its inhibition.
Found: 16.5

Lookup: Fill in the blank: the reported inhibition of `Cc1cc(Nc2ccccc2)n(CCC#N)n1` is ____.
Found: 15.7

Lookup: Query: inhibition; subject: `CCCCN1CN(S(=O)(=O)c2cccs2)c2nc3ccccc3nc21`
Found: -4.14

Lookup: Reported inhibition for CCOC(=O)CSC1=C(C#N)C(c2ccc(Cl)cc2)C(C(=O)OC)C(=O)N1 (stereo not drawn) : what is it?
Found: 7.95

Lookup: May I ask what inhibition has been recorded for `CCN(CC)S(=O)(=O)c1cccc(-c2nnc(SCCOc3ccccc3C)o2)c1` ?
Found: 9.64

Lookup: Field request: inhibition | item: COc1ccccc1C1C(C(C)=O)=C(O)C(=O)N1CCc1ccccc1 (stereo not drawn)
Found: 10.7
